Please provide measured % INHIB for the entries that follow.
Tested on: mouse apolipoprotein B mRNA
Experiment: Inhibition of mouse apolipoprotein B mRNA levels in primary mouse hepatocytes, real-time PCR
Format: cell-based
Settings: Table 3, 150 nM, averages from two experiments
In the oligonucleotide strings, read from the 5' end, every base follows the letter of its sugar. An asterisk marks phosphorothioate; unmarked linkages are phosphodiester. Other units and linkages are bracketed, terminal groups are in braces. A string of capitals states the bases alone. e = 2'-O-(2-methoxyethyl) (MOE); [5mC] = 5-methylcytosine; d = 2'-deoxy (DNA)
Kindly answer with a numeric value in %, unit omitted.

% INHIB for 147478 (eT*e[5mC]*e[5mC]*eA*eG*dG*dA*dA*dT*dT*dG*dA*dG*d[5mC]*dT*eT*eG*eT*eG*e[5mC]; antisense) [compound 147478] ?
78

Dear colleague, I am looking for the recorded % INHIB of the following substance: 147493 (eG*e[5mC]*eT*eT*e[5mC]*dA*dT*dT*dA*dT*dA*dG*dG*dA*dG*eG*eT*eG*eG*eT; antisense) [compound 147493]
41

So what does the record say about % INHIB for 147476 (eG*eA*eG*eG*eA*dG*dA*dT*dT*dG*dG*dA*dT*d[5mC]*dT*eT*eA*eA*eG*eG; antisense) [compound 147476] ?
13

Data request, read-out % INHIB, for 147485 (eA*eT*eT*eT*eG*dG*dG*dA*d[5mC]*dG*dA*dA*dT*dG*dT*eA*eT*eG*e[5mC]*e[5mC]; antisense) [compound 147485]
64

What does the record list as % INHIB for 147774 (antisense eT*eG*eG*e[5mC]*eT*dA*dG*dT*dT*dT*d[5mC]*dA*dA*dT*d[5mC]*e[5mC]*e[5mC]*e[5mC]*eT*eT) [compound 147774] ?
84

Request the reported % INHIB associated with 147765 (eA*eG*eG*e[5mC]*e[5mC]*d[5mC]*dA*dG*dT*dT*d[5mC]*d[5mC]*dA*dT*dG*eA*e[5mC]*e[5mC]*e[5mC]*eT; antisense) [compound 147765]
59

// lookup % INHIB for 147496 (eA*e[5mC]*e[5mC]*eA*eT*dG*dG*dA*dA*dA*dA*d[5mC]*dT*dG*dG*e[5mC]*eA*eA*e[5mC]*eT; antisense) [compound 147496]
19

Reported % INHIB, substance 147766 (eG*eG*eA*eG*e[5mC]*d[5mC]*d[5mC]*dA*d[5mC]*dG*dT*dG*d[5mC]*dT*dG*eA*eG*eA*eT*eT; antisense) [compound 147766] : ____
59

What does the record list as % INHIB for 147494 (eA*e[5mC]*eA*eA*e[5mC]*dT*dG*dG*dG*dA*dT*dA*dG*dT*dG*eT*eA*eG*e[5mC]*e[5mC]; antisense) [compound 147494] ?
84

If you can, please state the reported % INHIB value of 147768 (e[5mC]*e[5mC]*e[5mC]*eA*eT*dA*dT*dG*dG*dA*dG*dA*dA*dA*dT*e[5mC]*e[5mC]*eT*eT*e[5mC]; antisense) [compound 147768] .
24

What value of % INHIB has been recorded for this entry: 147506 (eA*eG*eG*eA*eA*dG*dG*dA*dA*d[5mC]*dT*d[5mC]*dT*dT*dG*eA*eT*eA*eT*eT; antisense) [compound 147506]
58

Could you tell me which % INHIB is on file for 147503 (eA*eA*eT*eG*eG*dA*dT*dG*dA*dT*dG*dA*dA*dA*d[5mC]*eA*eG*eT*eG*eG; antisense) [compound 147503] ?
26

###

Exercise: state measured % INHIB (inhibition of human apolipoprotein B mRNA levels) for each of the substances provided.
System: human apolipoprotein B mRNA
Assay: Inhibition of human apolipoprotein B mRNA levels in HepG2 cells, quantitative real-time PCR
Type: cell-based
Details: HepG2 cells treated with 150 nM of compound; averages from two experiments; quantitative real-time PCR
In the oligonucleotide strings, read from the 5' end, every base follows the letter of its sugar. An asterisk marks phosphorothioate; unmarked linkages are phosphodiester. Other units and linkages are bracketed, terminal groups are in braces. A string of capitals states the bases alone. e = 2'-O-(2-methoxyethyl) (MOE); [5mC] = 5-methylcytosine; d = 2'-deoxy (DNA)
Supply the numeric figure in %, leaving out any unit text.

What measured % INHIB (inhibition of human apolipoprotein B mRNA levels) is associated with 301032 (e[5mC]*eT*eA*e[5mC]*eT*dG*d[5mC]*dA*dA*dG*dG*d[5mC]*dT*dG*dG*e[5mC]*eT*e[5mC]*eA*e[5mC]; antisense) [compound 301032] on human apolipoprotein B mRNA?
63

Field: % INHIB (inhibition of human apolipoprotein B mRNA levels) (human apolipoprotein B mRNA). Entry: 281620 (antisense e[5mC]*e[5mC]*eT*eG*eA*dT*dA*dT*dT*d[5mC]*dA*dG*dA*dA*d[5mC]*eG*e[5mC]*eA*eG*e[5mC]) [compound 281620]
89

Lookup: % INHIB (inhibition of human apolipoprotein B mRNA levels) / human apolipoprotein B mRNA / 301019 (eG*eG*e[5mC]*eT*e[5mC]*d[5mC]*dT*d[5mC]*dA*dG*d[5mC]*dG*dG*d[5mC]*dA*eG*e[5mC]*eA*eA*e[5mC]; antisense) [compound 301019]
70

###

Test system: human apolipoprotein B mRNA
Experiment: Inhibition of human apolipoprotein B mRNA levels in HepG2 cells, quantitative real-time PCR
Format: cell-based
Conditions: HepG2 cells; human apolipoprotein B mRNA; oligonucleotides targeting genomic sequence SEQ ID NO 334; averages from two experiments
Experimental: The human hepatoblastoma cell line HepG2 was obtained from the American Type Culture Collection (Manassas, Va.). […] Quantitation of apolipoprotein B mRNA levels was determined by real-time quantitative PCR using the ABI PRISM™ 7700 Sequence Detection System (PE-Applied Biosystems, Foster City, Calif.) according to manufacturer's instructions. […]
In the oligonucleotide strings, read from the 5' end, every base follows the letter of its sugar. An asterisk marks phosphorothioate; unmarked linkages are phosphodiester. Other units and linkages are bracketed, terminal groups are in braces. A string of capitals states the bases alone. e = 2'-O-(2-methoxyethyl) (MOE); [5mC] = 5-methylcytosine; d = 2'-deoxy (DNA)
Value kind: % INHIB (%)
# output: bare number, implied unit %

Item 301098 (antisense eA*e[5mC]*eT*eA*eG*dA*dG*dG*dT*dA*dG*d[5mC]*d[5mC]*dA*dG*eA*eA*e[5mC]*eA*e[5mC]) [compound 301098] has what recorded % INHIB?
34

Field request: % INHIB | item: 301088 (antisense eA*eT*eG*eT*eT*d[5mC]*dA*d[5mC]*dT*dG*dA*dG*dA*d[5mC]*dA*eG*eG*e[5mC]*eT*eG) [compound 301088]
41

Given 301215 (antisense eT*eA*eT*eA*eG*dT*dA*d[5mC]*dA*d[5mC]*dT*dA*dA*dA*dA*e[5mC]*eT*eT*e[5mC]*eA) [compound 301215] , state its recorded % INHIB.
1

# input substance: 301178 (antisense eA*eG*eG*eA*eT*dT*d[5mC]*d[5mC]*d[5mC]*dA*dA*dG*dA*d[5mC]*dT*eT*eT*eG*eG*eA) [compound 301178] ; wanted: its % INHIB
38

Please report the recorded % INHIB for 301108 (antisense e[5mC]*eA*eT*eT*eA*dG*dA*dT*dA*d[5mC]*d[5mC]*dT*dG*dG*dA*e[5mC]*eA*e[5mC]*e[5mC]*eT) [compound 301108] .
29

Endpoint output: % INHIB of 301179 (antisense e[5mC]*eA*eG*e[5mC]*eT*d[5mC]*dT*dA*dA*dT*d[5mC]*dT*dA*dA*dA*eG*eA*e[5mC]*eA*eT) [compound 301179] . Value?
22

Fill in the blank: the reported % INHIB of 301191 (antisense eT*eT*e[5mC]*eT*e[5mC]*dT*dT*d[5mC]*dA*dT*d[5mC]*dT*dG*dA*dA*eA*eA*eT*eA*e[5mC]) [compound 301191] is ____.
21

# query: % INHIB of entry 301120 (antisense eT*eA*eG*eG*e[5mC]*dA*dA*dA*dG*dG*dA*d[5mC]*dA*dT*dG*eA*eA*eT*eA*eG) [compound 301120]
30

Give its % INHIB value. Item: 301154 (e[5mC]*eA*eG*e[5mC]*e[5mC]*dT*dG*d[5mC]*dA*dT*d[5mC]*dT*dA*dT*dA*eA*eG*eT*e[5mC]*eA; antisense) [compound 301154]
31

Could you share which % INHIB value was measured for 301116 (antisense eG*eA*eT*eG*eG*dA*dT*dG*dG*dT*dG*dA*dG*dA*dA*eA*eT*eT*eA*e[5mC]) [compound 301116] ?
33

Which % INHIB reading was recorded for the substance 301062 (e[5mC]*e[5mC]*eT*e[5mC]*eA*dG*d[5mC]*dG*dG*dA*d[5mC]*dA*d[5mC]*dA*d[5mC]*eA*e[5mC]*eA*e[5mC]*eA; antisense) [compound 301062] ?
21

Data provenance is patent US7803930B2.
